- assay.system: T1, EsCas13d, nuclease-dead (Eubacterium siraeum, UniProt B0MS50, R295A;H300A;R849A;H854A)
- T1 sequence: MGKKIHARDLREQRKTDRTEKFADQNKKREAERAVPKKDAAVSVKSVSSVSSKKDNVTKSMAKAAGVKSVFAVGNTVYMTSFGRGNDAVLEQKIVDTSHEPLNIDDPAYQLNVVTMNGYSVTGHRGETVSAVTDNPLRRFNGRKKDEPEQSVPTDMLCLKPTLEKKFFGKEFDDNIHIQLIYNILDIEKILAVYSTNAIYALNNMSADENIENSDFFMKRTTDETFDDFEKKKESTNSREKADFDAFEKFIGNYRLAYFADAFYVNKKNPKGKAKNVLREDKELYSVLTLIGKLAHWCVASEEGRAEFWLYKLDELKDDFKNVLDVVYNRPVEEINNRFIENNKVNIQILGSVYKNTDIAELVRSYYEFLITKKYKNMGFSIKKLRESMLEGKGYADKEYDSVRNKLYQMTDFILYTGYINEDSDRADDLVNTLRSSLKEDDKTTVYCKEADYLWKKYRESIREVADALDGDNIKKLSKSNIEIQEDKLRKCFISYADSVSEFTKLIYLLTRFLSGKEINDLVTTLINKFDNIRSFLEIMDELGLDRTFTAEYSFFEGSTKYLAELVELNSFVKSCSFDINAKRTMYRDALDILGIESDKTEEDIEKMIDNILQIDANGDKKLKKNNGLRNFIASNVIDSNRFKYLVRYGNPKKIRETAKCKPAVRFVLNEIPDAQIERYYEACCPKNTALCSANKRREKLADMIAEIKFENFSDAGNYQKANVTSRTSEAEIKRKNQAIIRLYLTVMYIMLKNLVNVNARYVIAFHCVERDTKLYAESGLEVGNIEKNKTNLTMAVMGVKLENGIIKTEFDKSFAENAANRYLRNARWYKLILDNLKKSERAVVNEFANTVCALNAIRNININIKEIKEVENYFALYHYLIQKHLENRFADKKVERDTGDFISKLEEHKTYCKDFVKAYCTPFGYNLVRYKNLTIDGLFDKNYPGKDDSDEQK
- assay.notes: crRNA (strand 1, pre-loaded); Mg2+; 40 mM Tris-HCl pH 7.5, 150 mM NaCl, 6 mM MgCl2, 1 mM DTT, 0.1% Tween-20, 0.2 mg/ml BSA; 25 C; 10 min per concentration, then washed
- experimental.setup: tags: His6-TwinStrep-SUMO cleaved; N-terminal SNAP kept (SNAP-Surface 488); label: 3' end held by stalled T7 RNA polymerase
pKd: −log10 of the molar value.
test.readout: pKd

1. target 1 C4A,C21A (mixed) RNA 1: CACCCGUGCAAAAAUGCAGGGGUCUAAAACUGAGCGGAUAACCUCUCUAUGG RNA 2: GGGAAUGGAUCCACAUCUACGAAUUCGUACAAUAGAGAGGUUAUCCGAUCACCGAGAUCGGAAGAGCACACGU = 7.39
2. target 1 insC 3' of 17,insG 3' of 4 (mixed) RNA 1: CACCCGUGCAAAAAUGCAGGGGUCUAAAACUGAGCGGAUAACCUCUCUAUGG RNA 2: GGGAAUGGAUCCACAUCUACGAAUUCGUACCAUAGCAGAGGUUAUCCGCGUCACCGAGAUCGGAAGAGCACACGU = 7.51
3. target 1 MT 5'PFS GCA 3'PFS CGG (mixed) RNA 1: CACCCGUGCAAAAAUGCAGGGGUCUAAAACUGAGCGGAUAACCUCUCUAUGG RNA 2: GGGAAUGGAUCCACAUCUACGAAUUCGCACCAUAGAGAGGUUAUCCGCUCACGGAGAUCGGAAGAGCACACGU = 7.60
